Quick reference: binding signal (PBM E-score (-0.5 to 0.5)) of the listed items.
# Tgt: atf-5 (T04C10.4) (Caenorhabditis elegans)
# Sequence: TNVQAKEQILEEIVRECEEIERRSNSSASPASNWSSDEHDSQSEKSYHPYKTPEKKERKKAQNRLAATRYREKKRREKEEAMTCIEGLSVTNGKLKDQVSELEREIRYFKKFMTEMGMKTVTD
The response must contain the number and no unit.

ATGACGTG (double strand) [8-mer ATGACGTG]; 0.485

IN: Quickly give me recorded binding signal (PBM E-score (-0.5 to 0.5)) for CGTCAGCA (double strand) [8-mer CGTCAGCA]
OUT: 0.457

IN: Quickly give me recorded binding signal (PBM E-score (-0.5 to 0.5)) for CGTCATCC (double strand) [8-mer CGTCATCC]
OUT: 0.487

IN: Quickly give me recorded binding signal (PBM E-score (-0.5 to 0.5)) for ACGTCATA (double strand) [8-mer ACGTCATA]
OUT: 0.464

IN: Quickly give me recorded binding signal (PBM E-score (-0.5 to 0.5)) for CTGACGTA (double strand) [8-mer CTGACGTA]
OUT: 0.455

IN: Quickly give me recorded binding signal (PBM E-score (-0.5 to 0.5)) for CGTCAGCC (double strand) [8-mer CGTCAGCC]
OUT: 0.491

* * *

Quick reference: binding signal (PBM E-score (-0.5 to 0.5)) of the listed items.
# Tgt: K11D2.4 (K11D2.4) (Caenorhabditis elegans) (UniProt G5EBU1)
# Sequence: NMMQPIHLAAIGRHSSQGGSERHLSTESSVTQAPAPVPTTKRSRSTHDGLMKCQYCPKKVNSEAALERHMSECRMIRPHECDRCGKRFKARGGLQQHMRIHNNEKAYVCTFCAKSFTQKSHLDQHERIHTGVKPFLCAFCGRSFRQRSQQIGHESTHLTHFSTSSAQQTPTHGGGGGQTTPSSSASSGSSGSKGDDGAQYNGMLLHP
The response must contain the number and no unit.

IN: Quickly give me recorded binding signal (PBM E-score (-0.5 to 0.5)) for AAAAAAGA (double strand) [8-mer AAAAAAGA]
OUT: 0.495

IN: Quickly give me recorded binding signal (PBM E-score (-0.5 to 0.5)) for AAAAAAAC (double strand) [8-mer AAAAAAAC]
OUT: 0.498

IN: Quickly give me recorded binding signal (PBM E-score (-0.5 to 0.5)) for AAAAAAGT (double strand) [8-mer AAAAAAGT]
OUT: 0.494

IN: Quickly give me recorded binding signal (PBM E-score (-0.5 to 0.5)) for AAAAAACA (double strand) [8-mer AAAAAACA]
OUT: 0.495

IN: Quickly give me recorded binding signal (PBM E-score (-0.5 to 0.5)) for CGAAAAAA (double strand) [8-mer CGAAAAAA]
OUT: 0.495

* * *

// values below are binding signal (PBM E-score (-0.5 to 0.5)); system is ZC328.2 (ZC328.2) (Caenorhabditis elegans)
The response must contain the number and no unit.

Study these solved cases before continuing.
CGCCCACC (double strand) [8-mer CGCCCACC]; 0.484
GCCCACGC (double strand) [8-mer GCCCACGC]; 0.485
CCCCCGCG (double strand) [8-mer CCCCCGCG]; 0.488

Now turn to the next sequence.
IN: Look up ZC328.2 (ZC328.2) (Caenorhabditis elegans) data: binding signal (PBM E-score (-0.5 to 0.5)) of CCCCCGCA (double strand) [8-mer CCCCCGCA] , then report it.
OUT: 0.497
